tested on: Tribolium castaneum; test: whole plant or invertebrate; details: Tribolium castaneum, read-out: Mortality (%) (Mean ± SD)
Assay metric: mortality at 50 µg/mL (%)

> print(dat)
                                   compound  units.label  result
1  CCOC(=O)CC(C)=O [Ethyl acetoacetate, ethyl acetoacetate]            %     0.7
2               C=CCOC(C)=O [allyl acetate]            %     100
3  CCCOC(C)=O [Propyl acetate, propyl acetate]            %    83.2
4  CC(=O)OC(C)C [Isopropyl acetate, isopropyl acetate]            %    66.5
5  CCCCOC(C)=O [Butyl acetate, butyl acetate]            %    13.9

====

system: Rhyzopertha dominica; assay: whole plant or invertebrate; details: Rhyzopertha dominica, read-out: Mortality (%) (Mean ± SD)
Listed molecules paired with reported mortality at 20 µg/mL
Assay metric: mortality at 20 µg/mL (%)

> print(dat)
                                   molecule  result
1  CC(=O)OC(C)C [Isopropyl acetate, isopropyl acetate]     8.9
2               C=CCOC(C)=O [allyl acetate]     100
3  CCOC(=O)CC(C)=O [Ethyl acetoacetate, ethyl acetoacetate]       0
4  CCCOC(C)=O [Propyl acetate, propyl acetate]     7.3
5  CCCCOC(C)=O [Butyl acetate, butyl acetate]       0

====

system: Rhyzopertha dominica; experiment: whole plant or invertebrate; details: Rhyzopertha dominica, read-out: Mortality (%) (Mean ± SD)
Assay metric: mortality at 100 µg/mL (%)

> print(dat)
                                   molecule            assay.metric  units.label  result
1  CC(=O)OC(C)C [Isopropyl acetate, isopropyl acetate]  mortality at 100 µg/mL            %     100
2               C=CCOC(C)=O [allyl acetate]  mortality at 100 µg/mL            %     100
3  CCCCOC(C)=O [Butyl acetate, butyl acetate]  mortality at 100 µg/mL            %     100
4  CCCOC(C)=O [Propyl acetate, propyl acetate]  mortality at 100 µg/mL            %     100
5  CCOC(=O)CC(C)=O [Ethyl acetoacetate, ethyl acetoacetate]  mortality at 100 µg/mL            %     0.4
